# assay-system: Jak2 (UniProt O60674)
# Sequence (O60674 whole entry, looked up): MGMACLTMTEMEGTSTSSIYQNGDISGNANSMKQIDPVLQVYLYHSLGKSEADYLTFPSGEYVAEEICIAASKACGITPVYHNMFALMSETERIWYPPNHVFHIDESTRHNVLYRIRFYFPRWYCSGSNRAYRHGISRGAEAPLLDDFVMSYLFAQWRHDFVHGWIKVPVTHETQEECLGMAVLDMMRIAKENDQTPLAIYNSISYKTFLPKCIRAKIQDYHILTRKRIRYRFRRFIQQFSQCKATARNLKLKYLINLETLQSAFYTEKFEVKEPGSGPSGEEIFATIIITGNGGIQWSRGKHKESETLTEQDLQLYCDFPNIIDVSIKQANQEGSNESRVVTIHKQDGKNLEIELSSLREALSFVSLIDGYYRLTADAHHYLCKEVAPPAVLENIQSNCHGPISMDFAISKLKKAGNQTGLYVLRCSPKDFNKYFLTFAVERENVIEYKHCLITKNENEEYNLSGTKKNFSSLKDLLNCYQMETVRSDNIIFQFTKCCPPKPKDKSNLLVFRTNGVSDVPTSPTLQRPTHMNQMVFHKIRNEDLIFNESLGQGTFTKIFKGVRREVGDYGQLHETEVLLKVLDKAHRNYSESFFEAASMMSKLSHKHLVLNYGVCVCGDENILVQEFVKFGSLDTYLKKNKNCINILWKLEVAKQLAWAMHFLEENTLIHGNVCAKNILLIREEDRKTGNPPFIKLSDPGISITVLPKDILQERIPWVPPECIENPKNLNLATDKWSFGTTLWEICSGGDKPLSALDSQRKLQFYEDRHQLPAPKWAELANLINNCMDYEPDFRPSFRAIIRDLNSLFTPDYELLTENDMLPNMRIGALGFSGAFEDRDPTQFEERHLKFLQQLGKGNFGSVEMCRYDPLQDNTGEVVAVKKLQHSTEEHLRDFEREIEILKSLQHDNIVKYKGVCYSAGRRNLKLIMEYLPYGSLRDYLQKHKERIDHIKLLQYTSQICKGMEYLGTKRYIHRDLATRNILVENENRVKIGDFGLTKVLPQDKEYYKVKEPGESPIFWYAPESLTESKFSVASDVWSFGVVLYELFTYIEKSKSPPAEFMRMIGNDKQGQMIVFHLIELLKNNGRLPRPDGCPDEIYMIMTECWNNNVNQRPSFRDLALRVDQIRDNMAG
# procedure-text: phosphorylation enrichment, bacterial display (enrichment ratio); higher = better substrate or ligand; peptides without Tyr show the background;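 also: 11-residue human phosphosite peptides and single-mutation variants displayed on the E. coli surface, counted by deep sequencing, each peptide's frequency after selection divided by its frequency in the unselected input library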;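 also: frequency after pTyr selection over input frequency; kinase dosed for 20-30% of maximal phosphorylation in three min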
// reported phosphorylation enrichment per item
recorded-endpoint: phosphorylation enrichment

>  <record-sequence>
WAFNLYDINKD [KCNIP3_Y174]

>  <measured-result>
1.17

$$$$
>  <record-sequence>
FPLAEYTEVKT [ALDH1A3_Y497_A493P_YF]

>  <measured-result>
1.01

$$$$
>  <record-sequence>
EQFELYCEMGS [CBL_Y371_YF]

>  <measured-result>
1.39

$$$$
>  <record-sequence>
EACRSYSHVVL [CHST6_Y168]

>  <measured-result>
0.602

$$$$
>  <record-sequence>
YRDALYKFMVD [PHEX_Y250]

>  <measured-result>
1.11

$$$$
>  <record-sequence>
DRPASYLEKVR [KRT13_Y118_L115P]

>  <measured-result>
0.43

$$$$
>  <record-sequence>
HEVHIYEKSGA [ARPC1B_Y35]

>  <measured-result>
1.06

$$$$
>  <record-sequence>
CNNFICGGCRG [SPINT2_Y163_Y163C]

>  <measured-result>
0.87

$$$$
>  <record-sequence>
KTTGGYAGGLS [KRT8_Y419_S417G]

>  <measured-result>
0.701

$$$$
>  <record-sequence>
PESTLYRKFTT [NTRK1_Y701_I699T]

>  <measured-result>
0.812

$$$$
>  <record-sequence>
NKVQFYIPDMN [NCR1_Y84_K82Q]

>  <measured-result>
1.01

$$$$
>  <record-sequence>
MTRDIYRASYY [ALK_Y1278_A1274T]

>  <measured-result>
0.63

$$$$
>  <record-sequence>
LNPLFYSLRNK [OR5R1_Y290_I289F]

>  <measured-result>
0.468

$$$$
>  <record-sequence>
KANEYYPVVII [ADAMTS18_Y765_L769I]

>  <measured-result>
3.18

$$$$

---

# System: c-Src
# procedure-text: phosphorylation enrichment, bacterial display (enrichment ratio); higher = better substrate or ligand; peptides without Tyr show the background
Classes (phosphorylation enrichment): bottom: < 0.5; middle: ≥ 0.5 and < 0.6; top: ≥ 0.6

>  <record-sequence>
RSFLSYYTSHV [NEFL_Y442_P440L]

>  <answer-label>
middle

$$$$
>  <record-sequence>
KNKNRCKNILP [PTPN11_Y279_Y279C]

>  <answer-label>
middle

$$$$
>  <record-sequence>
SEDANYKRVSC [TTC3_Y1288]

>  <answer-label>
bottom

$$$$
>  <record-sequence>
RLYARYFQGDL [PDK3_Y337]

>  <answer-label>
top

$$$$
>  <record-sequence>
KGSLPYNLILD [PKD1L2_Y406]

>  <answer-label>
middle

$$$$
>  <record-sequence>
RMLRKYQELMS [KRT74_Y425_E424K]

>  <answer-label>
bottom

$$$$
>  <record-sequence>
PLQNTYNYNVL [SLC4A1_Y553_K551N]

>  <answer-label>
top

$$$$
>  <record-sequence>
AGLEEYSAMRD [HRAS_Y64_Q61L]

>  <answer-label>
bottom

$$$$
>  <record-sequence>
INITIYGKTFH [EFHC1_Y177_R182H]

>  <answer-label>
bottom

$$$$
>  <record-sequence>
MGSFNYLGFAR [SPTLC2_Y178_YF]

>  <answer-label>
middle

$$$$
>  <record-sequence>
GEETDYTPVWC [UROD_Y30]

>  <answer-label>
middle

$$$$
>  <record-sequence>
MWGSDYVQLSR [MAP3K4_Y582]

>  <answer-label>
top

$$$$
>  <record-sequence>
KNNDGYTDFAE [MCFD2_Y135_I136T_YF]

>  <answer-label>
bottom

$$$$
>  <record-sequence>
FSQQTYFRVSN [ABCD1_Y180_YF]

>  <answer-label>
top

$$$$
>  <record-sequence>
HEVHIYEKSGA [ARPC1B_Y35]

>  <answer-label>
top

$$$$
>  <record-sequence>
MANFMYKAGPS [MAML2_Y515_YF]

>  <answer-label>
bottom

$$$$
>  <record-sequence>
NQNIGYKLGHR [KCNN3_Y268]

>  <answer-label>
bottom

$$$$
>  <record-sequence>
KNNSIYVLANI [VNN1_Y134_V136L]

>  <answer-label>
top

$$$$
>  <record-sequence>
PTEAQYRFIFM [PTPN11_Y511_Q506P_YF]

>  <answer-label>
bottom

$$$$
>  <record-sequence>
EFISENCGEII [EZH2_Y641_Y641N]

>  <answer-label>
bottom

$$$$
>  <record-sequence>
KIVATYRLCSE [DNAH3_Y1586]

>  <answer-label>
middle

$$$$
>  <record-sequence>
GEVLVYAEDPA [FLNA_Y319_V320A]

>  <answer-label>
middle

$$$$
>  <record-sequence>
YEDALYTVLHR [UNC13D_Y61]

>  <answer-label>
top

$$$$
>  <record-sequence>
GRVLGYGTFGK [FLT4_Y853_A855T]

>  <answer-label>
top

$$$$
>  <record-sequence>
AKGMKYLASKK [MET_Y1194]

>  <answer-label>
bottom

$$$$
>  <record-sequence>
VSSSDYFSFVL [USP24_Y2138_Y2134S]

>  <answer-label>
top

$$$$
>  <record-sequence>
SMAKFYASGIA [ACADSB_Y373_E376G_YF]

>  <answer-label>
bottom

$$$$
